In this section we review reported growth inhibition values for a set of compounds.
Assay: NCI Yeast Anticancer Drug Screen. Data for the sgs1 mgt1 strain (AID 161);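 note: 0% = growth of cultures given vehicle only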
Details: S. cerevisiae sgs1 mgt1 strain, at 50.0 µM, stronger effect = higher value
Compounds without any hit were thinned out: in the full panel of roughly 79,000, 15% have a hit. Active and inactive are the calls of the source. Cut-off read from the data, not from the text of the source: active = growth inhibition above about 70%; inactive = the rest.

COc1cc(S(N)(=O)=O)c(OC)cc1N: -11.4% (inactive)
CCC(CC(C)C)C(=O)OCCBr (configuration not stated): 20.6% (inactive)
NC(=O)C(=CNC(=S)Nc1cccc(C(F)(F)F)c1)C(N)=O: -14.8% (inactive)
COc1cc([N+](=O)[O-])cc2c1OC1(C=C2)Oc2ccccc2N1C (configuration not stated): -16.3% (inactive)
CC(=O)Nc1cc(Cl)ccc1SC1OC(COC(C)=O)C(OC(C)=O)C(OC(C)=O)C1OC(C)=O (configuration not stated): 17.9% (inactive)
S=c1o[nH]c(-c2ccccc2)c1C=Nc1ccccc1: 13.9% (inactive)
NC(N)=NS(=O)(=O)c1ccc(N=Cc2c3ccccc3nc3ccccc23)cc1: 99.2% (active)
COc1ccc2c3c([nH]c2c1[N+](=O)[O-])C(C)N(C)CC3 (configuration not stated): 21.1% (inactive)
c1ccc(-c2c(-c3ccc4c(c3)OCO4)c(-c3ccc4c(c3)OCO4)c(-c3ccccc3)c3ccccc23)cc1: 19.8% (inactive)
CC(=O)Nc1cc2cc(NS(=O)(=O)c3ccc(Cl)c(Cl)c3)ccc2oc1=O: 0.35% (inactive)

Lab note: measured growth inhibition of Cc1cc(=O)n(Cc2ccccc2)n1-c1ccccc1 was -0.4% (inactive)

Reported growth inhibition for Cc1cc(C)cc(NC(N)=S)c1 was 6.9% (inactive)

---

Below, each of the compounds is paired with its reported growth inhibition value.
Assay: NCI Yeast Anticancer Drug Screen. Data for the mec2-1 strain (AID 157)
Settings: S. cerevisiae mec2-1 strain, at 50.0 µM, stronger effect = higher value
About 79,000 compounds went through this panel and 15% of them were active in at least one assay; those are over-represented in the sample as a whole.
Your answer is read as %, so omit the unit and give the number.

COC(=O)Cc1c(C(C)=O)[nH]c2ccccc12: 9.2
NC(=O)C[n+]1cccc(C(=O)Nc2ccccc2)c1: 4.45
CC(C)C(=O)Nc1nc2c(ncn2C2OC(CO)C(O)C2O)c(=O)[nH]1 (stereo not given): -23.6
CCCCC1CCC(C(=O)O)=NC1 (stereo not given): 6.7
c1ccc2c(N=C(Nc3cccc4ccccc34)c3cccc4ccccc34)cccc2c1: 19.6

response.value for CN(CCO)c1nc(N)cc(=O)[nH]1 (field: growth inhibition) = 12.5

Record C=C(C)C(=O)OCCOCC(CC)CCCC (stereo not given) . Reported growth inhibition: -8.8

// field: growth inhibition; key: CCCCCCCCCCCCCCCOc1ccc2ccccc2c1 ; value = 8.2

Record CCCCOC(=O)c1ccc(OCCCC)cc1 , field growth inhibition: 19.6

Quick note, growth inhibition for O=C1c2cc3c(cc2CC12Cc1ccc4c(c1C2=O)CCCC4)CCCC3 (stereo not given) landed at -4.15

So, OCCCCCCN=Cc1ccccc1O.OCCCCCCN=Cc1ccccc1O.[Cu] ? Its growth inhibition was -1.2

Recorded growth inhibition (compound O=c1cc(-c2ccc3c(c2)OCO3)oc2ccccc12 ): 1.8

The measured growth inhibition associated with CC1CCCCN1P(N1CCCCC1C)N1CCCCC1C (stereo not given) reads 20.4

The recorded growth inhibition for entry COc1ccc(-c2c3c(nc4nc(SCC(=O)c5ccc(Br)cc5)nc(N)c24)CCCC3)cc1OC equals -17.2

Hey, just so you know, these numbers are from PubChem BioAssay (NCI).
